- Assayed System: canine TRPM8 (Canis lupus familiaris)
- Construct: expressed in transfected cells
- Assay Summary: In vitro canine TRPM8 functional assay (icilin-induced Ca2+ fluorescence, FLIPR/FDSS)
- Assay type: cell-based
- Protocol Conditions: HEK293, 0.5 μM compound; HEK293 canine TRPM8; icilin challenge
Endpoint: inhibition at 0.5 µM (%)

O=C(Nc1cccc2[nH]ccc12)C(Nc1ccccc1)c1ccc(Cl)cc1 (stereo not drawn)
84
O=C(Nc1cccc2cnccc12)C(Nc1ccc(Cl)cc1)c1ccc(C(F)(F)F)cc1 (stereo not drawn)
86.9
O=C(Nc1cccc2cnccc12)C(Nc1ccccc1F)c1ccc(Br)cc1 (stereo not drawn)
98
O=C(Nc1cccc2cnccc12)C(Nc1ccccc1Cl)c1ccc(C(F)(F)F)cc1 (stereo not drawn)
104
O=C(Nc1cccc2cnccc12)C(Nc1ccc(F)cc1F)c1ccc(C(F)(F)F)cc1 (stereo not drawn)
98
CC(C)(C)c1ccc(C(Nc2ccccc2)C(=O)Nc2cccc3cn[nH]c23)cc1 (stereo not drawn)
101
O=C(Nc1cccc2cnccc12)C(Nc1ccccc1F)c1ccc(Cl)cc1 (stereo not drawn)
98
Cc1cccc(C)c1NC(C(=O)Nc1cccc2cnccc12)c1ccc(C(F)(F)F)cc1 (stereo not drawn)
99
O=C(Nc1cccc2cnccc12)C(Nc1ccc(F)cc1)c1ccc(C(F)(F)F)cc1 (stereo not drawn)
99

* * *

- Assayed System: canine TRPM8 (Canis lupus familiaris, UniProt Q1A7N1)
- Sequence (Q1A7N1 1-1104): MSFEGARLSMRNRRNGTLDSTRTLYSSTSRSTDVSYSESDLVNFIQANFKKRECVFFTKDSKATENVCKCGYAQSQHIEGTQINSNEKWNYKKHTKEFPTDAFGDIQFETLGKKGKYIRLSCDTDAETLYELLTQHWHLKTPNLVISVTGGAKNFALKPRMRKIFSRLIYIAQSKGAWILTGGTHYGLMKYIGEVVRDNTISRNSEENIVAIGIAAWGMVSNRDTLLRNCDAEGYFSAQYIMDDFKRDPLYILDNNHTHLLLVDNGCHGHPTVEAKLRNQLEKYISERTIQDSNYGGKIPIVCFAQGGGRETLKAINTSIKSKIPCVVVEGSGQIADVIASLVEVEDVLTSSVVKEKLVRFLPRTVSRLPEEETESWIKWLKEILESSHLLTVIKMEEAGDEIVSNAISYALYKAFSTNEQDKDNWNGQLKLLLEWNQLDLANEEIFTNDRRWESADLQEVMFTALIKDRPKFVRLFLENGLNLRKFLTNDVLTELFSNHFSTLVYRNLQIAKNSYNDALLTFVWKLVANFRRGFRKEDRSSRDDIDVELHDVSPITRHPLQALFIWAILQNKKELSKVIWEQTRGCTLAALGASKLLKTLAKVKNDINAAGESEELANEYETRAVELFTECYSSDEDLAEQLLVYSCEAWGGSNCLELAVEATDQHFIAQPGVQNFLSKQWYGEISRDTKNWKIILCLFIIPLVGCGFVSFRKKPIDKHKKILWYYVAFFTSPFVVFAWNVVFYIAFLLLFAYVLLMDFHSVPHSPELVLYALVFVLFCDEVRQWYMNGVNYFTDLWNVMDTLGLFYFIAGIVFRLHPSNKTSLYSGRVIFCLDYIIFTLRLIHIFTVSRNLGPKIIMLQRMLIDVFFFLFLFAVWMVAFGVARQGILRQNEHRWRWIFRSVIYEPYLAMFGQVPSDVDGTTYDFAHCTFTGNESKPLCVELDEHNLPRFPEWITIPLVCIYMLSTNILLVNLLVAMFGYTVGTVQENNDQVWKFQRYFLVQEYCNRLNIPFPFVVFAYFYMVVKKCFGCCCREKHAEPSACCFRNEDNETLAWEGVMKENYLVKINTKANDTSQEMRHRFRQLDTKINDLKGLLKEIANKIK
- Assay Summary: In vitro canine TRPM8 functional assay (icilin-induced Ca2+ fluorescence, FLIPR/FDSS)
- Protocol Conditions: HEK293 cells stably expressing canine TRPM8; icilin at approx. 80% maximal response; eight-point dose-response
Endpoint: IC50 (nM)

Some solved cases for reference:
O=C(Nc1cccc2cnccc12)C(Nc1c(F)cccc1F)c1ccc(Cl)cc1 (stereo not shown)
94
CC(C)(C)c1ccc(C(Nc2ccccc2)C(=O)Nc2cccc3cn[nH]c23)cc1 (stereo not shown)
233

[P] O=C(Nc1cccc2cnccc12)C(c1ccc(C(F)(F)F)cc1)N1CCCc2ccccc21 (stereo not shown)
[Q] CN(c1ccccc1)C(C(=O)Nc1cccc2cnccc12)c1ccc(C(C)(C)C)cc1 (stereo not shown)
[R] O=C(Nc1cccc2cnccc12)C(Nc1ccccc1Cl)c1ccc(C(F)(F)F)cc1 (stereo not shown)
Ask | Place the items in sequence of falling IC50. Reply with the item labels sorted in the order that was asked for.
Reply | P, Q, R
(P: 586 nM, Q: 301 nM, R: 89.1 nM)

[1] O=C(Nc1cccc2cnccc12)C(Nc1cccc(Cl)c1)c1ccc(C(F)(F)F)cc1 (stereo not shown)
[2] Cc1ccccc1NC(C(=O)Nc1cccc2cnccc12)c1ccc(C(F)(F)F)cc1 (stereo not shown)
Ask | Would you mind telling me which has the lower recorded IC50 between 1 and 2 ? Field: selected label. Fill in the label of the entry you choose.
Reply | 2
(2: 38.4 nM, 1: 261 nM)

[1] O=C(Nc1cccc2[nH]ccc12)C(Nc1ccc(F)cc1)c1ccc(C(F)(F)F)cc1 (stereo not shown)
[2] O=C(Nc1cccc2cnccc12)C(c1ccc(C(F)(F)F)cc1)N1CCc2ccccc21 (stereo not shown)
[3] O=C(NC1CCc2ccccc21)C(Nc1ccccc1)c1ccc(C(F)(F)F)cc1 (stereo not shown)
[4] CC(C)(C)c1ccc(C(Nc2ccccc2)C(=O)Nc2ccc3cnccc3c2)cc1 (stereo not shown)
[5] CC(C)(C)c1ccc(C(Nc2ccccc2)C(=O)Nc2cccc3cnccc23)cc1 (stereo not shown)
Ask | Please order the records by their reported IC50, lowest number first. Answer by naming the labels in the order asked.
Reply | 5, 2, 3, 1, 4

[A] O=C(Nc1cccc2ncccc12)C(Nc1c(F)cccc1F)c1ccc(Cl)cc1 (stereo not shown)
[B] O=C(Nc1cccc2[nH]ccc12)C(Nc1ccccc1)c1ccc(Cl)cc1 (stereo not shown)
Ask | Between A and B , which one has the lower reported IC50 value? Let me know the label of the one you choose.
Reply | A

[A] O=C(Nc1cccc2cnccc12)C(Sc1ccccc1)c1ccc(C(F)(F)F)cc1 (stereo not shown)
[B] O=C(Nc1cccc2cnccc12)C(Nc1ccc(F)cc1)c1ccc(C(F)(F)F)cc1 (stereo not shown)
Ask | Parameter metric = IC50. Return the lower-valued option from A and B . Indicate which entry you chose by stating its label.
Reply | B
(B: 73 nM, A: 130 nM)

[A] O=C(Nc1cccc2cnccc12)C(Nc1ccc(F)cc1F)c1ccc(C(F)(F)F)cc1 (stereo not shown)
[B] O=C(Nc1cccc2cnccc12)C(Nc1ccccc1)c1ccc(C(F)(F)F)cc1 (single isomer, unassigned) [Cpd 30]
[C] CC(C)(C)c1ccc(C(Nc2ccccc2)C(=O)Nc2cccc3[nH]ccc23)cc1 (stereo not shown)
[D] O=C(Nc1cccc2cnccc12)C(Nc1cc(F)ccc1F)c1ccc(Cl)cc1 (stereo not shown)
Ask | Highest IC50 first, then in falling order down to the smallest. Return the labels ranked in the requested order, please.
Reply | C, B, A, D
(C: 529 nM, B: 257 nM, A: 115 nM, D: 65.3 nM)

[A] CC(C)(C)c1ccc(C(Nc2ccccc2)C(=O)Nc2cccc3[nH]ncc23)cc1 (stereo not shown)
[B] Cc1cccc(C)c1NC(C(=O)Nc1cccc2cnccc12)c1ccc(C(F)(F)F)cc1 (stereo not shown)
[C] O=C(Nc1cccc2cnccc12)C(Nc1ccccc1)c1ccc(C(F)(F)F)cc1 (single isomer, unassigned) [Cpd 31]
[D] O=C(Nc1cccc2cnccc12)C(Nc1ccccc1F)c1ccc(Br)cc1 (stereo not shown)
[E] O=C(Nc1cccc2cccnc12)C(Nc1ccccc1)c1ccc(C(F)(F)F)cc1 (stereo not shown)
Ask | Highest IC50 first, then in falling order down to the smallest. // rank by listing labels in the order requested
Reply | E, B, A, D, C

[1] O=C(Nc1cccc2cnccc12)C(Nc1cccc(F)c1)c1ccc(C(F)(F)F)cc1 (stereo not shown)
[2] O=C(Nc1cccc2cnccc12)C(Nc1cccc(F)c1F)c1ccc(Cl)cc1 (stereo not shown)
[3] O=C(Nc1cccc2cnccc12)C(Nc1ccc(Cl)cc1)c1ccc(C(F)(F)F)cc1 (stereo not shown)
Ask | Task for the reader: rank each entry by its IC50, from the minimum upward. Give the labels in the order requested.
Reply | 1, 2, 3
